Tested on: human endothelial cells, TNFa-induced E-selectin, imaging
Experiment: E-selectin induction blockers, endothelial cells – imaging, retest plus dose response, cell count, confirmation (AID 1288)
Active and inactive are the calls of the source. How the calls were made is not given here.
Could you please pick one outcome from this set? active, inactive

Answered cases to consult:
{"columns": ["compound", "assigned-class"],
 "data": [
  ["O=C(OCn1ncc(Cl)c(Cl)c1=O)c1cccc(C(F)(F)F)c1", "inactive"],
  ["CN(CCC#N)C(=O)COC(=O)c1ccccc1C(=O)c1ccc(Cl)c([N+](=O)[O-])c1", "active"]
]}

Field: outcome | Entry: `CCCn1c(=NC(=O)c2ccco2)c(C(=O)OCC)cc2c(=O)n3ccccc3nc21`
active

Field entry: `O=S1(=O)C=C(Sc2nnc(-c3ccccc3)o2)c2ccccc21`
inactive

Field entry: `COc1ccc(-c2cc(C(=O)Nc3cnn(Cc4ccccc4C)c3)no2)cc1OC`
active

Field entry: `CCOC(=O)CS(=O)(=O)c1nc(-c2ccccc2)cc(C(F)(F)F)n1`
inactive

Field entry: `CC(C)(C)C(=O)/C(=C/c1cccc([N+](=O)[O-])c1)n1cncn1`
inactive
